Test system: RXF 393 renal
Assay: NCI-60 one-dose screen, 48 h (100 = growth as untreated, 0 = no growth, -100 = all killed)
Conditions: 10 µM unless noted
About 83,000 compounds went through this panel and 20% of them were active in at least one assay; those are over-represented in the sample as a whole.
metric: growth (%)

>>> reading("c1ccc(Nc2ccccn2)nc1")
97.9
>>> reading("CCN(Cc1ccc(Cl)c(Cl)c1)c1ccc2nc(N)nc(N)c2c1C")
-80.1
>>> reading("CN1C(=O)NC(c2ccc(Cl)cc2)(c2ccc(Cl)cc2)C1=O")
62
>>> reading("C=COC(=O)CCOCC(CC)CCCC (stereo unspecified)")
108
>>> reading("O=C(O)c1ccccc1Cc1ccc2c(c1)CCCC2")
105
>>> reading("CC(C)=CCC[C@@H](C)[C@H]1CC[C@@]2(C)C3=C(CC[C@]12C)[C@@]1(C)CC[C@H](O)C(C)(C)[C@@H]1CC3")
95.9

----------
Tested on: HCT-116 colon
Experiment: NCI-60 one-dose screen, 48 h (100 = growth as untreated, 0 = no growth, -100 = all killed)
Settings: 10 µM unless noted
This is part of a sample that, as a whole, favours compounds with a hit. Of some 83,000 tested, about 20% had one in any assay.
Reported growth is given for each of the following compounds.
metric: growth (%)

>>> reading("C(=C\\c1ccncc1)/c1ccncc1")
115
>>> reading("Cc1ccc(S(=O)(=O)CCCl)cc1")
118
>>> reading("CCOC(=O)CSCCC#N")
95.2
>>> reading("Cc1ccc(N2C(=O)c3cccc4c(N)c(S(=O)(=O)O)cc(c34)C2=O)cc1")
102
>>> reading("Cn1c(=O)c2nc3c(=O)n(C)c(=O)n(C)c3nc2n(C)c1=O")
92.1
>>> reading("COc1cccc2c1Cc1ccccc1-2")
101
>>> reading("Cn1/c(=N\\N=C\\c2ccccc2OCCO)sc2ccccc21")
98.8
>>> reading("Cc1ccc(C(C)C)c(OCC(=O)O)c1")
105
>>> reading("CN(C)c1ncnc2c1cnn2C")
105
>>> reading("Cc1cccc(-[n+]2noc(N)n2)c1")
82.2
>>> reading("CCCCCCCCCCCCSC1=C(Cl)C(=O)C(OC)=C(OC)C1=O")
16
>>> reading("NNC(=O)CCCCl")
108
>>> reading("NNC(=O)c1ccccc1N")
99.3
>>> reading("OCC1OC(n2ccc3c2ncn2ncnc32)C(O)C1O (centres undefined)")
20.5

----------
System: SF-295 CNS
Assay: NCI-60 one-dose screen, 48 h
Settings: 10 µM unless noted
This is part of a sample that, as a whole, favours compounds with a hit. Of some 83,000 tested, about 20% had one in any assay. Active and inactive are the calls of the source. The calls were made as follows: active = growth percent below 10; inactive = the rest.
Classes used: active, inactive

>>> labelclass("C=COC(=O)CCOCC(CC)CCCC (configuration not stated)")
"inactive"
>>> labelclass("COc1ccc(Br)c(C=O)c1")
"inactive"
>>> labelclass("CCOc1ccc(C(=O)O)cc1")
"inactive"
>>> labelclass("OCCNc1ccccc1")
"inactive"
>>> labelclass("CCOC(=O)c1ccc(Nc2sc(C(=O)c3ccc(Br)cc3)c(N)c2C#N)cc1")
"active"
>>> labelclass("CC(=O)c1ccc(C)cc1")
"inactive"
>>> labelclass("CC(C)NC(=O)OCc1c(COC(=O)NC(C)C)c(-c2ccc(Cl)cc2)n2c1CCC2")
"inactive"
